Provide the recorded growth inhibition for the entries that follow.
- MEASUREMENT PROTOCOL: NCI Yeast Anticancer Drug Screen. Data for the rad50 strain (AID 155);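 note: 0% = growth of vehicle-only cultures of the same strain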
- CONDITIONS USED: S. cerevisiae rad50 strain growth inhibition; at 50.0 µM; stronger effect = higher value
About 79,000 compounds went through this panel and 15% of them were active in at least one assay; those are over-represented in the sample as a whole. Calls of active or inactive are those of the source. Cut-off read from the data, not from the text of the source: active = growth inhibition above about 70%; inactive = the rest.

Field: example entries. Status: answers known.
CC(=O)NC(CCCNC(=O)N(CCCl)N=O)C(=O)NCc1ccccc1 (centres undefined): -1.85% (inactive)
O=Cc1c(Cl)c(Cl)c(Cl)c(Cl)c1Cl: -2.3% (inactive)
COc1ccc2ncc(COC(=O)NC3CCCCC3)c(COC(=O)NC3CCCCC3)c2c1: 36.9% (inactive)

Let us move to another entry and its growth inhibition.
Would you kindly share the measured growth inhibition for "COC1=CC(=C(\C#N)c2ccccc2)/C=CC/1=N/O" ?
40.2% (inactive)

* * *

- MEASUREMENT PROTOCOL: NCI Yeast Anticancer Drug Screen. Data for the mlh1 rad18 strain (AID 175)
- CONDITIONS USED: S. cerevisiae mlh1 rad18 strain growth inhibition; at 50.0 µM; stronger effect = higher value
This is part of a sample that, as a whole, favours compounds with a hit. Of some 79,000 tested, about 15% had one in any assay.
Provide the recorded growth inhibition for the entries that follow.
One number for each entry, in %.

Field: example entries. Status: answers known.
NS(=O)(=O)c1ccc(N=Nc2nc3[nH]c(=O)[nH]c(=O)c3[nH]2)cc1: 18.6
CC1=CC2=C(OCO1)C(=O)c1ccccc1C2=O: 8.95
CN(C)c1cccc(/C=C(\C#N)c2ccccc2)c1: 15.2

# batch: return growth inhibition for each of the 8 compounds below
1. COc1ccc(CCNc2ncc([N+](=O)[O-])cc2N)cc1OC
2. CCCCC(CC)C(O)CC(C)=O (stereo not drawn)
3. Cc1nn(-c2nc(-c3ccc(Br)cc3)cs2)c(C)c1C
4. CCOC(=O)c1c(C)c2c(n1C)CC/C(=C/NCCc1ccccc1)C2=O
5. CCN(CC)CCC1(C(N)=O)Cc2ccccc2N(CC)c2ccccc21 (stereo not drawn)
6. CC(=O)OCC1Cn2c(c(-c3ccccc3)c(=O)[nH]c2=S)O1 (stereo not drawn)
7. Sc1ccccc1N=Cc1ccc(C=Nc2ccccc2S)cc1
8. CC(C)OP(=O)(OC(C)C)/C(F)=N/Nc1ccc([N+](=O)[O-])cc1

[2.75, 21.1, 3.45, 93.3, 1.85, 8.25, -3.75, 6.25]

# batch: return growth inhibition for each of the 2 compounds below
1. CC(=O)NCCO
2. COc1cc(C2NC(=O)C(C)(C)O2)cc(OC)c1OC (stereo not drawn)

1. 7.25
2. -37

* * *

- MEASUREMENT PROTOCOL: NCI Yeast Anticancer Drug Screen. Data for the mlh1 rad18 strain (AID 175)
- CONDITIONS USED: S. cerevisiae mlh1 rad18 strain growth inhibition; at 50.0 µM; stronger effect = higher value
About 79,000 compounds went through this panel and 15% of them were active in at least one assay; those are over-represented in the sample as a whole.
QUANTITY: growth inhibition (%)
One number for each entry, in %.

Field: example entries. Status: answers known.
COc1ccc(OC)c(C(c2cc(OC)ccc2OC)C(Cl)(Cl)Cl)c1: 14.6
O=c1[nH]c(-c2ccccc2N=NN2CCCCC2)nc2ccccc12: 1.8
CC1(CCC(=O)c2ccc3c(c2)OCO3)OCCO1: 26.9
O=C(CC1=NC2NN(c3ccccc3)C(=O)C2=C1CC(=O)C(c1ccccc1)c1ccccc1)C(c1ccccc1)c1ccccc1 (stereo not given): 48.5
C=C1CC[N+]2(CCCC)CCCC12 (stereo not given): 1
O=C1CS/C1=C/c1ccccc1: -5.15
C=C[C@]1(C)C[C@@H](OC(=O)CO)[C@@]2(C)[C@H](C)CC[C@]3(CCC(=O)[C@H]32)[C@@H](C)[C@@H]1O: -2.15
CC(C)(C)C(Br)CC(N)=O (stereo not given): -6.85
O=C(Nc1ccc(CCc2ccc(NC(=O)C34CC5CC(CC(C5)C3)C4)cc2)cc1)C12CC3CC(CC(C3)C1)C2: 2.55
C/C(=N\NS(=O)(=O)c1ccccc1)c1ccccc1: 20.5

# batch: return growth inhibition for each of the 3 molecules below
1. Cc1ccc(NC(=O)COc2ccccc2)c(C)c1
2. CC(C)(C)C1CC[C@H]2c3c([nH]c4ccc(Br)cc34)[C@H]3C(=O)N(c4ccccc4)C(=O)[C@H]3[C@H]2C1 (stereo not given in full)
3. Oc1[nH]c2ccccc2c1N=Nc1nc(-c2ccccc2)cs1

1. 28.4
2. 12.6
3. -18.8

# batch: return growth inhibition for each of the 5 molecules below
1. O=C(Nc1ccc2[nH]c3c(-c4ccccc4)nccc3c2c1)c1ccccc1[N+](=O)[O-]
2. Cc1[nH]c2ccccc2c1C(CC(=O)O)c1ccccc1 (stereo not given)
3. Cc1ccccc1C1CCCCC1OS(C)(=O)=O (stereo not given)
4. O=C(Nc1ccccc1)c1cc([N+](=O)[O-])cc([N+](=O)[O-])c1
5. COc1ccc(S(=O)(=O)Nc2cccc(C(F)(F)F)c2)cc1

1. 5.35
2. -4.4
3. -11.1
4. 0.05
5. 99.5

* * *

- MEASUREMENT PROTOCOL: NCI Yeast Anticancer Drug Screen. Data for the rad50 strain (AID 155);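 note: 0% = growth of vehicle-only cultures of the same strain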
- CONDITIONS USED: S. cerevisiae rad50 strain growth inhibition; at 50.0 µM; stronger effect = higher value
The panel holds about 79,000 compounds, 15% with a hit somewhere; the sample as a whole holds those more often. Activity calls are given as the source filed them. Rule as the data show it: active = growth inhibition above about 70%; inactive = the rest.
Provide the recorded growth inhibition for the entries that follow.

Field: example entries. Status: answers known.
O=C(O)/C=C/c1c2ccc(=O)c(O)c-2oc2c(O)c(O)ccc12: 36.4% (inactive)
CCOC(=O)C1C(C)=CC(=O)CC1CC (stereo not drawn): 24.3% (inactive)
Cc1ccc(C)c(NC(=O)Oc2ccc(C(=O)OCc3ccccc3)cc2)c1: 66.8% (inactive)
C=CCOc1cc2c(cc1C(C)c1ccc(OC)c(OC)c1)OCO2 (stereo not drawn): 32.9% (inactive)
OCC(CN1CCCCC1)(CN1CCCCC1)CN1CCCCC1: -47.8% (inactive)
CCOC(=O)c1ccc(NC(=S)NC(=O)c2cccs2)o1: 43.4% (inactive)
N#CC1(Nc2ccc(-c3ccc(NC4(C#N)CCCC4)cc3)cc2)CCCC1: 40.8% (inactive)

Would you kindly share the measured growth inhibition for OCC(O)C(O)C(O)C(O)CN=Cc1ccccc1O (stereo not drawn) ?
-19.8% (inactive)

* * *

- MEASUREMENT PROTOCOL: NCI Yeast Anticancer Drug Screen. Data for the bub3 strain (AID 167)
- CONDITIONS USED: S. cerevisiae bub3 mutant strain, at 50.0 µM, stronger effect = higher value
The panel holds about 79,000 compounds, 15% with a hit somewhere; the sample as a whole holds those more often.
QUANTITY: growth inhibition (%)
One number for each entry, in %.

# batch: return growth inhibition for each of the 4 molecules below
1. CC1CN=C(c2ccccn2)C(c2ccccn2)=N1 (stereo unspecified)
2. C=CCN1C(=O)CS/C1=N\NC(=O)c1c(C)nc2sccn12
3. COc1ccccc1C1OC2=C(Nc3ccc([N+](=O)[O-])cc3N2)C1=O (stereo unspecified)
4. Cc1cccc(N/N=C2\CCSc3ccccc32)c1

1. 17.4
2. -22.8
3. 16.9
4. 3.75

* * *

- MEASUREMENT PROTOCOL: NCI Yeast Anticancer Drug Screen. Data for the rad50 strain (AID 155);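 note: 0% = growth of vehicle-only cultures of the same strain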
- CONDITIONS USED: S. cerevisiae rad50 strain growth inhibition; at 50.0 µM; stronger effect = higher value
Compounds without any hit were thinned out: in the full panel of roughly 79,000, 15% have a hit. Where a SMILES comes first, the peptide text is derived from it. [ ]: non-standard residue; d: D form. The star is where a group is joined. Cbz = O=C(OCc1ccccc1)*; Aib = CC(C)(N)C(=O)O
QUANTITY: growth inhibition (%)
One number for each entry, in %.

Field: example entries. Status: answers known.
CC(=O)Nc1ccc(/C=C2\SC(=S)N(/C=C3/C(=O)N(c4ccccc4)N=C3C)C2=O)cc1: 12.6
CC(C)(NC(=O)C(C)(C)NC(=O)OCc1ccccc1)C(=O)O (Cbz-[Aib]-[Aib]-OH): 6.05
COC(=O)c1ccc(Cl)cc1OCC(=O)Nc1ccccc1: -29.1
C=C1CC(CCCCCCC2CC(=C)C(=O)O2)OC1=O (stereo unspecified): 11.2
O=C(Nc1ccc(Cl)cc1)c1cc2c(cc1Cl)Sc1nccn1S2(=O)=O: -4.85

# batch: return growth inhibition for each of the 5 compounds below
1. O=C(Nc1cc2cc([N+](=O)[O-])ccc2oc1=O)c1cccs1
2. CCCCNC(=S)/N=C/c1c(O)cc(C)oc1=O
3. N#Cc1ccc(OCCCCOc2ccc([N+](=O)[O-])cc2Cl)cc1
4. COc1ccc2c(C)[n+]3ccc4cc(OC)c(OC)cc4c3cc2c1 (tested in a mixture with another compound)
5. COC1OC(COS(C)(=O)=O)C2OC(C)(C)OC12 (stereo unspecified)

-12.2
-16.6
5.75
21.5
11.6

Would you kindly share the measured growth inhibition for "CC(=O)Nc1ccc2nc(/C=C/c3ccc(N(C)C)cc3)c(=O)oc2c1" ?
38.5
